- Tested on: PIK3C2B;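 also: KINOMEscan kinase panel screen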
- RECORDED_CONDITIONS: concentration: 1 μM, replicates: in singlicate; n = 1
Kindly supply the reported %Inh values for the records listed here.
Numbers only, in %.

// known answers, use as guide
| COMPOUND | DISPLAY_UNIT | ASSAY_VALUE |
| --- | --- | --- |
| Nc1cccc(-c2ccc3c(N)n[nH]c3c2)c1 | % | 0 |
| CCn1c(-c2nonc2N)nc2c(-c3ccccc3)ncc(OCCCN)c21.O=C(O)C(F)(F)F.O=C(O)C(F)(F)F | % | 1 |
| Fc1cc(Cl)ccc1Nc1ccnc2cc(-c3ccc(CN4CCSCC4)o3)ccc12 | % | 0 |
| CN(C)CCOc1ccc(-c2cc(-c3ccc(Cl)c(O)c3)c(-c3ccncc3)[nH]2)cc1.Cl.Cl | % | 10 |

For the 3 compounds below, give their %Inh values.
1. O=C(Nc1n[nH]c2nc(-c3cccc(O)c3)ccc12)C1CC1
2. COc1cccc2c(-c3ccncc3)c(-c3ccc(F)cc3)nn12
3. O=C1NC(=O)C(c2ccccc2Cl)=C1Nc1cccc(Cl)c1

## Output
1: 4; 2: 0; 3: 0

Please look at the items below and tell me %Inh for each one, in order.
1. Cc1ccc(O)cc1Nc1ccnc2ccc(C(C)(C)C)cc12
2. CS(=O)(=O)c1cccc(CNc2nc(Nc3ccc4c(c3)CCC(=O)N4)ncc2C(F)(F)F)c1
3. Nc1ncc(-c2ccc3nccc(-c4ccncc4)c3c2)cc1S(=O)(=O)N1CCCCC1
4. Cc1ccccc1CC(=O)N1CCc2cc(-c3cn(C)c4ncnc(N)c34)ccc21
5. CC(C)c1nc(-c2ccc(F)c(NS(=O)(=O)c3c(F)cccc3F)c2)c(-c2ccnc(Nc3ccc(N4CCOCC4)nc3)n2)s1
6. COc1cc(Nc2ccnc3cc(-c4ccncc4)ccc23)cc(OC)c1OC.Cl
7. Cl.O=C(Nc1ccc(Oc2ccc3[nH]c(NC(=O)c4ccco4)nc3c2)cc1)Nc1cc(C(F)(F)F)ccc1F

## Output
1: 23; 2: 0; 3: 100; 4: 77; 5: 17; 6: 0; 7: 100

Need %Inh for each of these compounds.
1. Cc1ccc(NC(=O)c2cccc(N3CCCCC3)c2)cc1-c1ccc(C(=O)NCC2CC2)cc1
2. CCOc1nccc(-c2c(-c3ccc(F)cc3)ncn2C2CCNCC2)n1

## Output
1: 0; 2: 23

Source: paper PMC5540273
